- System: red blood cells in EDTA-stabilized whole blood
- Assay protocol: Visual evaluation of hemolysis (time until hemolysate is clear)
- Assay type: cell-based
- Run parameters: final concentration 25% (weight/volume); whole blood final dilution 1:20
Readings of clear after for the listed molecules

{"Molecule": "CCCCCCCC[n+]1ccccc1.[Cl-] [N-Octylpyridiniumchloride]", "clear after": "2 min"}
{"Molecule": "CCCC[n+]1ccc(C)cc1.F[B-](F)(F)F", "clear after": "20 min"}
{"Molecule": "CCCCCC[n+]1ccccc1.[Cl-] [1-Hexylpyridiniumchloride]", "clear after": "7 min"}
{"Molecule": "CCCCn1cc[n+](C)c1.F[B-](F)(F)F", "clear after": "20 min"}
